tested on: Candida albicans; test: Antifungal activity against Candida albicans after 48 hrs by disc diffusion method; assay type: functional
Measured inhibition zone (IZ), listed per entry.

MOLECULAR_STRING	inhibition zone (IZ) [mm]
CCCS(=O)(=O)NCCCNS(=O)(=O)CCC	12
CCCCS(=O)(=O)NCCCCNS(=O)(=O)CCCC	12
CCCCS(=O)(=O)NCCCNS(=O)(=O)CCCC	10
CCCCS(=O)(=O)NCCCCCNS(=O)(=O)CCCC	13
